Reference for the values: patent US20240166747A1

target: human CD96v2 expressed on cells (human) (UniProt P40200); assay: competition flow cytometry, inhibition of CD155-Fc-AF647 binding to CHO cells expressing human CD96v2
VALUE_KIND: IC50 (nM)
Write down the numeric answer in nM and omit the unit.

Check out these entries, answers already filled in.
BINDER: 42Y073-1A01-126 (antibody, V domains shown) VH: QVQLVQSGAEVKKPGASVKVSCKASGYTFTRYNMHWVRQAPGQGLEWMGWINPAGGSTSYAQKFQGRVTMTRDTSTSTVYMELSSLRSEDTAVYYCARETAYYTTKGNWFDPWGQGTLVTVSA VL: DIQMTQSPSSLSASVGDRVTITCRASQSISSYLNWYQQKPGKAPKLLIYAASSLQSGVPSRFSGSGSGTDFTLTISSLQPEDFATYYCQQSLYPPRTFGGGTKVEIK
IC50 (nM): 0.1
--
BINDER: 42Y073-1A01-103 (antibody, V domains shown) VH: QVQLVQSGAEVKKPGASVKVSCKASGYTFTAYQMHWVRQAPGQGLEWMGIINPAGGWTSYAQKFQGRVTMTRDTSTSTVYMELSSLRSEDTAVYYCARETAYYTTKGNWFDPWGQGTLVTVSS VL: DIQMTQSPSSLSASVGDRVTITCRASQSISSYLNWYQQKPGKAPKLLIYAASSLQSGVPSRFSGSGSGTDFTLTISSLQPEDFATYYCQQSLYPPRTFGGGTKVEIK
IC50 (nM): 0.03
--
BINDER: 42Y073-1A01-100 (antibody, V domains shown) VH: QVQLVQSGAEVKKPGASVKVSCKASGYTFTTYRMHWVRQAPGQGLEWMGIINPSGGLTQYAQKFQGRVTMTRDTSTSTVYMELSSLRSEDTAVYYCARETAYYTTKGNWFDPWGQGTLVTVSS VL: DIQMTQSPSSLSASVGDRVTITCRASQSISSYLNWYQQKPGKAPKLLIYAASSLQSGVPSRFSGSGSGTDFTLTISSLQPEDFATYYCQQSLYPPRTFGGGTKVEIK
IC50 (nM): 0.06
--
BINDER: 42Y073-1A01-191 (antibody, V domains shown) VH: QVQLVQSGAEVKKPGASVKVSCKASGYTFTKYRMHWVRQAPGQGLEWMGIINPQGGSTSYAQKFQGRVTMTRDTSTSTVYMELSSLRSEDTAVYYCARETAYYTTKGNWFDPWGQGTLVTVSA VL: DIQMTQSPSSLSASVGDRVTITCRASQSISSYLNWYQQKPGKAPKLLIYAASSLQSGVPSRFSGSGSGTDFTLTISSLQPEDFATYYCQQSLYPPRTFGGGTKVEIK
IC50 (nM): 0.03

Turning now to a further record.
// IC50 lookup, key: 42Y073-86F04-6 (antibody, V domains shown) VH: QVQLVQSGAEVKKPGSSVKVSCKASGGTFSGHAISWVRQAPGQGLEWMGGIIPIFGRARYAQKFQGRVTITADESTSTAYMELSSLRSEDTAVYYCARLLGESGMDVWGQGTTVTVSS VL: DIQMTQSPSSLSASVGDRVTITCRASQSISSYLNWYQQKPGKAPKLLIYAASSLQSGVPSRFSGSGSGTDFTLTISSLQPEDFATYYCQQPYFSPPTFGGGTKVEIK
0.25
